Source of measurements: PubChem BioAssay AID1069

# procedure-text: LNCaP granularity increase inducers, single-point recheck – cell-based, side scatter shift, flow cytometry, confirmation (AID 1069);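 further: LNCaP human prostate cancer cells in low-serum medium with charcoal-stripped FBS; percent of cells with raised granularity gated so DMSO controls show 10%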
# settings: LNCaP differentiation, 4 d, at 100 µM, stronger effect = higher value
Activity calls are given as the source filed them.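 How the source made its calls: active means high combined rank on largest and smallest cell-count-weighted shift across three tests, rank score above 45, floors 50 and 25 (some results past the limit were not filed as active); inactive means the rest.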
Known side scatter shift of a selection of compounds

                                smiles_data   quantity_measured  observed_measurement
0  N=c1c(C(=O)NC2CCCC2)cc2c(=O)n3ccccc3nc2n1C1CCCC1  side scatter shift      16.7% (inactive)
1  CCOC(=O)N1CCN(C(=O)Cc2ccc(-n3c(=O)[nH]c4ccccc4c3=O)cc2)CC1  side scatter shift       6.3% (inactive)

Answer with reported side scatter shift of Oc1c(CN2CCCCC2)cc(COCc2ccccc2)c2cccnc12
5.7% (active)

Report measured side scatter shift; entry is COC(=O)Nc1sc2c(c1C(N)=O)CCCCCC2
10% (inactive)

Kindly indicate its recorded side scatter shift. Item: Nc1cccc2cnccc12
4.1% (inactive)

Fill in side scatter shift for record Cc1cc(=O)c2ccccc2[nH]1
11.2% (inactive)
